Reported Kd is given for each of the following binders.
test target: T1, human ActRIIB (human, UniProt Q13705 19-137, limits assumed)
T1 construct: antigen in MSD-SET; also called ACVR2B; ActR2B
T1 sequence: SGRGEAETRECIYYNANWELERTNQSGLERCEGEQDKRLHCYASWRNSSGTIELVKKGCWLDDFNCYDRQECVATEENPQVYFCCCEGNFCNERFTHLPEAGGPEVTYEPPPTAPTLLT
test protocol: MSD-SET, preliminary
Number in nM, nothing else.

// known answers, use as guide
Antibody Ofaschlupfer (antibody, V domains shown, full-length IgG) VH: QVQLVQSGAEVKKPGSSVKVSCKASGYTFTSSYINWVRQAPGQGLEWMGTINAVSGSTSYAQKFQGRVTITADTSTSTAYMELSSLRSEDTAVYYCARGGWFDYWGQGTLVTVSS VL: QSALTQPRSVSGSPGQSVTISCTGTSSDVGSKNYVNWYQQHPGKAPKLMIYGVSKRESGVPDRFSGSKSGNTASLTISGLQAEDEADYYCGTFAGGKYYGVFGGGTKLTVL
0.0277
Bäradreck Fab (Fab, V domains shown, Fab) VH: QVQLVQSGAEVKKPGSSVKVSCKASGYTFTSSYINWVRQAPGQGLEWMGTINPVSGSTSYAQKFQGRVTITADTSTSTAYMELSSLRSEDTAVYYCARGGWFDYWGQGTLVTVSS VL: QSALTQPRSVSGSPGQSVTISCTGTSSDVGSYNYVNWYQQHPGKAPKLMIYGVSKRPSGVPDRFSGSKSGNTASLTISGLQAEDEADYYCGTFAGGSYYGVFGGGTKLTVL
0.0563
Antibody Bebballesgmias (antibody, V domains shown, full-length IgG) VH: QVQLVQSGAEVKKPGSSVKVSCKASGYKFTSSYINWVRQAPGQGLEWMGTINPVSGSTSYAQKFQGRVTITADTSTSTAYMELSSLRSEDTAVYYCARGGWFDYWGQGTLVTVSS VL: QSALTQPRSVSGSPGQSVTISCTGTSSDVGSYNYVNWYQQHPGKAPKLMIYGVSKRPRGVPDRFSGSKSGNTASLTISGLQAEDEADYYCGTFAGGSYYGVFGGGTKLTVL
0.0167
Schwardamaga Fab (Fab, V domains shown, Fab) VH: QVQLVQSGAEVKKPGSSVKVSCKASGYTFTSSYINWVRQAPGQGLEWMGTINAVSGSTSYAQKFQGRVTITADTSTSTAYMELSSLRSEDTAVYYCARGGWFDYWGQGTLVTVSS VL: QSALTQPRSVSGSPGQSVTISCTGTSSDVGSANYVNWYQQHPGKAPKPMIYGVSRRPSGVPDRFSGSKSGNTASLTISGLQAEDEADYYCGTFAGGKYYGVFGGGTKLTVL
0.0726

Enquiry: Value lookup for Kd; key = Antibody Bäradreck (antibody, V domains shown, full-length IgG) VH: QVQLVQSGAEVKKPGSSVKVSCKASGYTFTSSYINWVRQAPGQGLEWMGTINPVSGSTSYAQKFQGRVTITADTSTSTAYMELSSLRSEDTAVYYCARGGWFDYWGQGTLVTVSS VL: QSALTQPRSVSGSPGQSVTISCTGTSSDVGSYNYVNWYQQHPGKAPKLMIYGVSKRPSGVPDRFSGSKSGNTASLTISGLQAEDEADYYCGTFAGGSYYGVFGGGTKLTVL
Return: 0.0638
